B1: PhoQ; a variant is named by its letters at X, in order, P23837 (parent)
chain: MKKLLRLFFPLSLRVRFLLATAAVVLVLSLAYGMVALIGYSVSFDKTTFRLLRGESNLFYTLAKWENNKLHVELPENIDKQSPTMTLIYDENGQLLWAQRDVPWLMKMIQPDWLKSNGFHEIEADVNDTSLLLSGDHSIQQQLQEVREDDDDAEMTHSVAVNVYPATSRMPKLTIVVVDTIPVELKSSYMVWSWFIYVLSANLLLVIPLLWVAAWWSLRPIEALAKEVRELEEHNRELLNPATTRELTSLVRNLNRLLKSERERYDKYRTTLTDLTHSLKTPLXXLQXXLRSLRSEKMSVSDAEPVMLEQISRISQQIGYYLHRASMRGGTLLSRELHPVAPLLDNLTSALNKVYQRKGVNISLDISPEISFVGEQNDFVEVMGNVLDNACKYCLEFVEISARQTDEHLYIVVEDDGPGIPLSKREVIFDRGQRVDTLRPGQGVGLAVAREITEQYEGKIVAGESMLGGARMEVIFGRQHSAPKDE

# Variants of: B1
# experiment notes: enrichment ratio after two sorts for PhoP signalling (ratio (wild type AVST 3.29)); higher = more functional
# run parameters: with PhoP (E. coli)
Whole data set: some 140,000 sequences, median “enrichment ratio after two sorts for PhoP signalling” near 0, cut for the highest 2% near 11. Shown is part of a subset that was picked to be rich in the highest values.
quantity name: enrichment ratio

Worked cases, enrichment ratio given:
variant string	experimental result
MGFC	14.4
VFLM	≤ 0.25
MGWC	32.1
TNLM	2.74
FELK	≤ 0.25

Please look at the items below and tell me enrichment ratio for each one, in order.
1. IQIR
2. MCLM
3. GFLM
4. QRLC
5. DRAC
6. HRGK

≤ 0.25
6.74
2.69
≤ 0.25
≤ 0.25
≤ 0.25
